# Test system: PPARg:RXRa 270nM:90nM, anti-RXR (NR concentration 270 nM, RXRa partner concentration 90 nM)
# assay-protocol: PBM binding z-score (relative to random genomic background probes); higher = stronger binding; sequences stand for … in GC…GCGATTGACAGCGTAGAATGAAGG
experimental-endpoint: PBM binding z-score
Enter the number alone.

The measured PBM binding z-score associated with CCGACTCGGGCAAGGTTACCATAACGCACAGCCA reads 0.916

Value of PBM binding z-score reported for the sequence TCTTGTAGATCAACAGAAGGTTAAGAAAGATCGA is 1.35

Documented PBM binding z-score of CGAACTAGGTTATCCAGGACAGTGAATACATTGA : 2.24

Documented PBM binding z-score of GCAGACAGGTGAAACGCCGGTAACTCAGGGTGGC : -0.0478

For this sequence ( TTACCACGGTGAGCTGAGGTCGTTGATCCAACTC ), measured PBM binding z-score is 0.206

Memo: CCGAGTAGGTTATGGGGCACTCAGGCAACGGTGA , reported PBM binding z-score: 4.33

Record summary for CCTTACGGGTCACTGACAGATTATAGCATTTGGA : reported PBM binding z-score = 4.42

Please fill in: PBM binding z-score reported for GCTGCTAGGTCAGCTGATGGTCAGCTAAAGCTCG = 1.01

Input CGTCAGAGTTCAACTAAGGTAACGTAAAGCACGC . Output PBM binding z-score: 3.98

PBM binding z-score in this record for CAAACTAGGTCACGTAAGGTCAAAGTCGAATGAC : 8.07

The measured PBM binding z-score associated with ATATGTAGGTTACAGCCGGGTCATTCAGGCTATG reads 5.46

For ATATGTAGGCTAGCTGGGGTCATTCAGACTAGGC the sequence record lists PBM binding z-score as 3.64

CCGACTGGCGCAAGGTTACCATAACGCACAGCCA yielded PBM binding z-score of -0.0732

# PBM binding z-score (sequence: GATACAGGCTCAAGGCCAGAGTACGCGTATTGAT ) is 0.34

The reported value for CAGCCTAAGTCAGGGCCAGTATAGGAGGAACGTT in terms of PBM binding z-score is -0.709

Quick note, PBM binding z-score for CGAACGAGGGCATGAGTTGATAGAAAATGCCGAT landed at 1.33

Recorded result, TCATATAGGTAAAGGTGATAGTCGAACGATATGA , PBM binding z-score: 3.48

PBM binding z-score recorded for this sequence, GCATATAGATAATACAAGGTGAAAGTCCGATTGT , is 0.513

For reference, reported PBM binding z-score for CAAACTAGGTCACGAAAGCTCAAAGTCGAATGAC stands at 7.24

# PBM binding z-score of CCTTACGGGTCACGAGGTTATCGCACGACGAGCG = 6.79

Per the record, CCGACTGGGGCAAAGGTTACCATTCTCAGTACGA has PBM binding z-score of 9.61

Record CCTACTGGGTCAAGGTCATTGATCAGTCAAAGCA . Reported PBM binding z-score: 7.05

Please fill in: PBM binding z-score reported for CGTCCAAGGCCAAGGTCAGTGAAAGAGACTCGAA = 0.725

Measured PBM binding z-score, AGAACGAGGGCAGTGAGTTGATAGCACGGGTGGC : -0.0577

Measured PBM binding z-score of CCTTACGGGTCAGTCCAGGTTATAGCATCGGAGT : 1.64

Documented PBM binding z-score of TCTTGTAGATCAGCAGGTTAAGAAAGCTGGCCAA : 1.3
